# System: RPMI-8226 leukemia
# assay_remarks: NCI tumour cell line growth inhibition, 48 h
Would you mind telling me the reported TGI of each entry?
One number for each entry, in µM.

C[N+](C)(C)CCN[N+]1(C)CCCc2ccccc21 (centres undefined): 92.9
CS(=O)(=O)OCCN(CCOS(C)(=O)=O)c1ccc(/C=N/Nc2ncnc3nc[nH]c23)cc1: 39

I need TGI for every entry listed below, if you could help.
1. CC(C)[C@H](C(=O)O[C@@H]1/C=C/C(=O)O[C@@H](C)CCC/C=C/[C@@H]2C[C@H](O)C[C@H]21)N(C)C
2. COc1ccc(/C=C2/CN(CCC#N)C/C(=C\c3ccc(OC)cc3)C2=O)cc1

Output line:
1. 36.8
2. 9.02

---

# Test system: HOP-92 NSCLC
# assay_remarks: NCI tumour cell line growth inhibition, 48 h
readout_type: GI50

I need GI50 for every entry listed below, if you could help.
1. CC1COCCN1CC#CCOC(=O)c1cc2ccccc2oc1=O (centres undefined)
2. CCCc1n(Cc2ccc3ccccc3n2)cc[n+]1Cc1ccc2ccccc2n1
3. Cc1cc(N)cc(C)c1-c1c(Br)cc(N)cc1Br
4. CCN(CCO)CCCOc1ccc2c(Nc3cc(CC(=O)Nc4cccc(F)c4)[nH]n3)ncnc2c1
5. O=C(c1ccco1)c1c(C(F)(F)F)n([O-])c2ccc(F)cc2[n+]1=O
6. O=C(CSc1ncc(-c2ccccc2)n1-c1ccccc1)Nc1ccc(-c2nc3ccccc3s2)cc1
7. Cc1cn2c(/C=C3/C(=O)Nc4ccc(Cl)cc43)c(C)nc2s1

Output line:
["72500 nM", "560 nM", "2010 nM", "10600 nM", "802 nM", "22600 nM", "16000 nM"]

I need GI50 for every entry listed below, if you could help.
1. COc1ccc2nc3cc(Cl)ccc3c(Nc3cc(C(C)C)c(O)cc3C)c2c1
2. COc1ccc(-c2nc3sccn3c2-c2ccnc(NCCCNS(=O)(=O)c3ccc(F)cc3)n2)cc1

Output line:
1: 1160 nM; 2: 1750 nM

---

# Tested on: MCF7 breast
# assay_remarks: NCI tumour cell line growth inhibition, 48 h
readout_type: TGI

Study these solved cases before continuing.
CC(=O)OCC1OC(Oc2cc(C)c(O)cc2C/C=C(\C)CC/C=C(\C)C[C@@H](C=C(C)C)OC(C)=O)C(O)C(OC(C)=O)C1OC(C)=O (some centres not stated): > 50 µM
CCN1C(=O)N(CC)C2C1NN=c1s/c(=C\c3ccc(OC)cc3)c(=O)n12 (configuration not stated): > 100 µM
CCSc1nc(-c2cccs2)nc2ccc(I)cc12: > 100 µM
N[C@@H](CSSC[C@H](N)C(=O)N1CCn2cc(-c3ccccc3)nc2[C@@H]1CC1CCCCC1)C(=O)N1CCn2cc(-c3ccccc3)nc2[C@@H]1CC1CCCCC1: 2.85 µM
N=c1oc2ccccc2cc1C(=O)Nc1nccs1: > 100 µM
CNc1ncnc2c1cnn2CCCCO: > 100 µM
NCCNCCCNC(=O)c1cc(-c2ccccc2)nc2ccccc12: > 100 µM
COC(=O)[C@@H]1COC(C(C)(C)C)N1C(=O)C(c1ccccc1)c1ccccc1 (some centres not stated): > 100 µM

I need TGI for every entry listed below, if you could help.
1. COc1ccc2nc3cc(Cl)ccc3c(Nc3cc(C(C)C)c(O)cc3C)c2c1
2. COc1cc(NC(=O)c2ccccc2Nc2ccnc(C(F)(F)F)c2)cc(OC)c1OC
3. Cn1ccoc1=Nc1ccc(Cl)c(Cl)c1
4. COc1ccc(/C=C2\CCC(Cc3ccccc3)(CN(C)C)C2=O)cc1 (configuration not stated)
5. CCCCCCCN(CCCCCCC)CC(O)c1cc2ccccc2c2cc(Br)ccc12 (configuration not stated)
6. OCCCCCCCCCCCOc1ccc(C2OCC3(CC=CCC3)CO2)cc1 (configuration not stated)

Output line:
1. 3.96 µM
2. > 100 µM
3. > 10 µM
4. > 100 µM
5. 48 µM
6. 19.6 µM

The measured values listed here are drawn from PubChem BioAssay (NCI).
